- Tested on: Pseudomonas aeruginosa
- PROCEDURE_DETAILS: Antibacterial activity against Pseudomonas aeruginosa assessed as diameter of growth inhibition zone at 100 ug/ml after 24 hr by agar diffusion method
- Assay type: functional
- RUN_PARAMETERS: read-out: DIZ
Would you kindly list zone of inhibition at 100 µg/mL for each of these compounds?
Note: state the figure and append the unit.

[in] Kindly state the measured zone of inhibition at 100 µg/mL obtained for C(=C\c1ccccc1)/C(=N/Nc1ccc(-c2nc3ccccc3[nH]2)cc1)c1ccccc1 with Pseudomonas aeruginosa.
[out] 8.5 mm

[in] Quick one: CC1=NC(=C/c2ccccc2)/C(=N/Nc2ccc([N+](=O)[O-])cc2[N+](=O)[O-])O1
[out] 8.5 mm

[in] Quick one: CC(/C=C/c1ccccc1)=N\Nc1ccc(-c2nc3ccccc3[nH]2)cc1
[out] 8 mm

[in] Quick one: CC(/C=C/c1ccccc1)=N/Nc1nc(-c2ccccc2)cs1
[out] 8 mm

[in] Quick one: O=C(N/N=C(/C=C/c1ccccc1)c1ccccc1)c1ccncc1
[out] 8.5 mm

[in] Quick one: O=[N+]([O-])c1ccc(N/N=C(/C=C/c2ccccc2)c2ccccc2)c([N+](=O)[O-])c1
[out] 8.5 mm

[in] Quick one: CC(/C=C/c1ccccc1)=N\Nc1ccccc1
[out] 8.5 mm

[in] Quick one: CC1=NC(=C/c2ccccc2)/C(=N/Nc2ccccc2)O1
[out] 8 mm

[in] Quick one: C(=C\c1ccccc1)/C(=N\Nc1nc(-c2ccccc2)cs1)c1ccccc1
[out] 8 mm

[in] Quick one: CC(/C=C/c1ccccc1)=N\NC(=O)c1ccncc1
[out] 8 mm

FYI, the data here is from ChEMBL document CHEMBL3045275.
